molecular target: SERT (Homo sapiens); construct: purchased Perkin-Elmer (Boston, MA, USA) RBHSTM400UA; host or cells: HEK-293 clonal cell line; assay: SERT competitive binding assay, [3H]-paroxetine, membranes from HEK-293 clonal cell line overexpressing SERT; conditions: 2 nM [3H]-paroxetine, 1 h at 27 °C; mean ± SEM of three experiments, each in triplicate; read-out: Ki SERT
Sequence (P31645 whole entry): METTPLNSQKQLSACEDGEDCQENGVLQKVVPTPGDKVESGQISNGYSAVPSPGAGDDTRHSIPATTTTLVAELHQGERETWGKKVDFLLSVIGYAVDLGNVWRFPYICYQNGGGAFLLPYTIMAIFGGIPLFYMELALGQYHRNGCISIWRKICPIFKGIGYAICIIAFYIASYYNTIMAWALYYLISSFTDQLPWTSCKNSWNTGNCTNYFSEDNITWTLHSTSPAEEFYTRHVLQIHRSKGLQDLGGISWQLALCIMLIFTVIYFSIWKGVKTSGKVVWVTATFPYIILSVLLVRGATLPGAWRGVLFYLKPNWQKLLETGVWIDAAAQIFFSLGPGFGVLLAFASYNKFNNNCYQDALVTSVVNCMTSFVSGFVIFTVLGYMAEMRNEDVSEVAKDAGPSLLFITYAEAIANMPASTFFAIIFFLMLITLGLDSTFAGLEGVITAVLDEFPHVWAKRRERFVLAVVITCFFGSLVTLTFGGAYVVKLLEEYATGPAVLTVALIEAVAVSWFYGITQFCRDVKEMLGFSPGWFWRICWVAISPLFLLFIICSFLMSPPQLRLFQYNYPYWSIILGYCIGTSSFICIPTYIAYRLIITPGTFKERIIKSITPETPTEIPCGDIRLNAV
pKi: −log10 of the molar value.
ASSAY_ENDPOINT: pKi

[P] O=C(CN1CCN(CCCc2c[nH]c3ccc(F)cc23)CC1)N1CCOc2ccc(Cl)cc21
[Q] O=C(CN1CCN(CCCc2c[nH]c3ccc(Br)cc23)CC1)Nc1cc(F)ccc1C(=O)NCCN1CCOCC1 [Compound 13e]
**Q:** In terms of reported pKi, does P or Q have the smaller number? Please respond with the label that marks your chosen entry.
**A:** Q

[1] O=C(CN1CCN(CCCc2c[nH]c3ccccc23)CC1)Nc1ccc(F)c(C(=O)NCCN2CCOCC2)c1 [Compound 13k]
[2] O=C(CN1CCN(CCCc2c[nH]c3ccccc23)CC1)N1CCOc2cc(F)ccc21
[3] O=C(CN1CCN(CCCc2c[nH]c3ccc(F)cc23)CC1)Nc1ccc(F)c(C(=O)NCCN2CCOCC2)c1 [Compound 13c]
[4] O=C(CN1CCN(CCCc2c[nH]c3ccc(Br)cc23)CC1)Nc1cc(C(=O)NCCN2CCOCC2)ccc1F [Compound 13f]
**Q:** // smallest pKi at index 0, largest at the end Labels, ranked as asked.
**A:** 2, 4, 1, 3
